- System: MCF7
- assayProcedure: Cytotoxicity against MCF7 cells
- Assay type: cell-based
- assayConditions: human
quantityName: Activity

compound="CC(C)(C)[Si](Oc1ccc(C(NC(=O)c2ccccc2)C(=O)O)cc1I)(c1ccccc1)c1ccccc1 (configuration not stated)" quantityname=Activity measvalue=Active
compound="O=C(NC(C(=O)O)c1ccc(O)c(I)c1)c1ccccc1 (configuration not stated)" quantityname=Activity measvalue="Not Active"
compound="COC(=O)C(O)c1ccc(OC)c(I)c1 (configuration not stated)" quantityname=Activity measvalue="Not Active"
compound="COc1ccc(C(OC(C)=O)C(=O)O)cc1I (configuration not stated)" quantityname=Activity measvalue="Not Active"
compound="COc1ccc(C(O)C(=O)O)cc1I (configuration not stated)" quantityname=Activity measvalue="Not Active"
compound="COC(=O)Nc1ccc(C(NC(=O)c2ccccc2)C(=O)O)cc1I (configuration not stated)" quantityname=Activity measvalue="Not Active"
compound="COC(=O)C(Sc1ccccc1)c1ccc(OC)c(I)c1 (configuration not stated)" quantityname=Activity measvalue="Not Active"
compound="COC(=O)C(c1ccc(OC)c(I)c1)N1C(=O)c2ccccc2C1=O (configuration not stated)" quantityname=Activity measvalue="Not Active"
compound="COC(=O)C(OC(C)=O)c1ccc(OC)c(I)c1 (configuration not stated)" quantityname=Activity measvalue="Not Active"
compound=COC(=O)Cc1ccc(OC)c(I)c1 quantityname=Activity measvalue="Not Active"
compound=COC(=O)Cc1cc(I)c(OC)c(I)c1 quantityname=Activity measvalue="Not Active"
compound="COC(=O)C(NC(=O)c1ccccc1)c1ccc(OC)c(I)c1 (configuration not stated)" quantityname=Activity measvalue=Active

====

- Test system: NCI-H460
- assayProcedure: Cytotoxicity against NCI-H460 cells
- Assay type: cell-based
- assayConditions: human
quantityName: Activity

compound="COC(=O)C(Sc1ccccc1)c1ccc(OC)c(I)c1 (configuration not stated)" measvalue="Not Active"
compound="CC(C)(C)[Si](Oc1ccc(C(NC(=O)c2ccccc2)C(=O)O)cc1I)(c1ccccc1)c1ccccc1 (configuration not stated)" measvalue=Active
compound="COc1ccc(C(O)C(=O)O)cc1I (configuration not stated)" measvalue="Not Active"
compound="COC(=O)C(O)c1ccc(OC)c(I)c1 (configuration not stated)" measvalue="Not Active"
compound=COC(=O)Cc1ccc(OC)c(I)c1 measvalue="Not Active"
compound="COC(=O)C(c1ccc(OC)c(I)c1)N1C(=O)c2ccccc2C1=O (configuration not stated)" measvalue="Not Active"
compound="O=C(NC(C(=O)O)c1ccc(O)c(I)c1)c1ccccc1 (configuration not stated)" measvalue="Not Active"
compound="COC(=O)C(NC(=O)c1ccccc1)c1ccc(OC)c(I)c1 (configuration not stated)" measvalue=Active
compound=COC(=O)Cc1cc(I)c(OC)c(I)c1 measvalue="Not Active"
compound="COC(=O)Nc1ccc(C(NC(=O)c2ccccc2)C(=O)O)cc1I (configuration not stated)" measvalue="Not Active"
compound="COC(=O)C(OC(C)=O)c1ccc(OC)c(I)c1 (configuration not stated)" measvalue="Not Active"
compound="COc1ccc(C(OC(C)=O)C(=O)O)cc1I (configuration not stated)" measvalue="Not Active"

Entry source: ChEMBL document CHEMBL1145294
